Test system: Exophiala dermatitidis CA01
Experiment: Broth microdilution chequerboard analysis of Lynovex (NM001) in combination with clinical antifungals
Format: cell-based
Conditions: GEOMEAN; in combination with Lynovex (NM001); 72 h, 35° C.
observation-type: Antifungal MIC100 in Combination (µg/mL)
Numbers only, in µg/mL.

Below: 3 compounds and their reported Antifungal MIC100 in Combination.
compound: C[C@@H]1[C@H](O)[C@@H](C)/C=C/C=C/C=C/C=C/C=C/C=C/C=C/[C@H](O[C@@H]2O[C@H](C)[C@@H](O)[C@H](N)[C@@H]2O)C[C@@H]2O[C@](O)(C[C@@H](O)C[C@@H](O)[C@H](O)CC[C@@H](O)C[C@@H](O)CC(=O)O[C@H]1C)C[C@H](O)[C@H]2C(=O)O
Antifungal MIC100 in Combination [µg/mL]: 0.23
//
compound: OC(Cn1cncn1)(Cn1cncn1)c1ccc(F)cc1F
Antifungal MIC100 in Combination [µg/mL]: 25
//
compound: CC[C@H](C)C[C@H](C)CCCCCCCCC(=O)N[C@H]1C[C@@H](O)[C@@H](NCCN)NC(=O)[C@@H]2[C@@H](O)CCN2C(=O)[C@H]([C@H](O)CCN)NC(=O)[C@H]([C@H](O)[C@@H](O)c2ccc(O)cc2)NC(=O)[C@@H]2C[C@@H](O)CN2C(=O)[C@H]([C@@H](C)O)NC1=O
Antifungal MIC100 in Combination [µg/mL]: 2.0

Now for a further compound.
Reported Antifungal MIC100 in Combination for CCC(C)n1ncn(-c2ccc(N3CCN(c4ccc(OCC5COC(Cn6cncn6)(c6ccc(Cl)cc6Cl)O5)cc4)CC3)cc2)c1=O (stereo not shown) was 0.14

* * *

Field: FICI. Provide a value for each of the compounds that follow.
System: Exophiala dermatitidis CA01
Experiment: Broth microdilution chequerboard analysis of Lynovex (NM001) in combination with clinical antifungals
Format: cell-based
Settings: GEOMEAN; antifungal with Lynovex (NM001); MIC50, 120 h; <0.5 Synergy, 0.5-1 Additive, >1 Indifference

compound: C[C@@H]1[C@H](O)[C@@H](C)/C=C/C=C/C=C/C=C/C=C/C=C/C=C/[C@H](O[C@@H]2O[C@H](C)[C@@H](O)[C@H](N)[C@@H]2O)C[C@@H]2O[C@](O)(C[C@@H](O)C[C@@H](O)[C@H](O)CC[C@@H](O)C[C@@H](O)CC(=O)O[C@H]1C)C[C@H](O)[C@H]2C(=O)O [Amphotericin B]
system-under-test: Exophiala dermatitidis CA01
FICI: 0.58 (3)
--
compound: CCC(C)n1ncn(-c2ccc(N3CCN(c4ccc(OCC5COC(Cn6cncn6)(c6ccc(Cl)cc6Cl)O5)cc4)CC3)cc2)c1=O (stereo not shown) [Itraconazole]
system-under-test: Exophiala dermatitidis CA01
FICI: 0.18 (5)
--
compound: OC(Cn1cncn1)(Cn1cncn1)c1ccc(F)cc1F [Fluconazole]
system-under-test: Exophiala dermatitidis CA01
FICI: 0.41 (4)

Here is another compound to look at.
Log: Exophiala dermatitidis CA01, compound CC[C@H](C)C[C@H](C)CCCCCCCCC(=O)N[C@H]1C[C@@H](O)[C@@H](NCCN)NC(=O)[C@@H]2[C@@H](O)CCN2C(=O)[C@H]([C@H](O)CCN)NC(=O)[C@H]([C@H](O)[C@@H](O)c2ccc(O)cc2)NC(=O)[C@@H]2C[C@@H](O)CN2C(=O)[C@H]([C@@H](C)O)NC1=O [Caspofungin] , FICI = 0.24 (4)

* * *

Task for the reader: assign each of the following compounds its reported FICI.
System: Exophiala dermatitidis CA01
Experiment: Broth microdilution chequerboard analysis of Lynovex (NM001) in combination with clinical antifungals
Format: cell-based
Conditions: GEOMEAN; antifungal with Lynovex (NM001); MIC100, 72 h; <0.5 Synergy, 0.5-1 Additive, >1 Indifference

Here's what some known entries look like.
compound: C[C@@H]1[C@H](O)[C@@H](C)/C=C/C=C/C=C/C=C/C=C/C=C/C=C/[C@H](O[C@@H]2O[C@H](C)[C@@H](O)[C@H](N)[C@@H]2O)C[C@@H]2O[C@](O)(C[C@@H](O)C[C@@H](O)[C@H](O)CC[C@@H](O)C[C@@H](O)CC(=O)O[C@H]1C)C[C@H](O)[C@H]2C(=O)O
system-under-test: Exophiala dermatitidis CA01
FICI: 0.53 (1)

compound: CCC(C)n1ncn(-c2ccc(N3CCN(c4ccc(OCC5COC(Cn6cncn6)(c6ccc(Cl)cc6Cl)O5)cc4)CC3)cc2)c1=O (stereo not shown)
system-under-test: Exophiala dermatitidis CA01
FICI: 0.18 (5)

compound: OC(Cn1cncn1)(Cn1cncn1)c1ccc(F)cc1F
system-under-test: Exophiala dermatitidis CA01
FICI: 0.42 (3)

The record that follows has no FICI shown yet.
Field FICI (entry `CC[C@H](C)C[C@H](C)CCCCCCCCC(=O)N[C@H]1C[C@@H](O)[C@@H](NCCN)NC(=O)[C@@H]2[C@@H](O)CCN2C(=O)[C@H]([C@H](O)CCN)NC(=O)[C@H]([C@H](O)[C@@H](O)c2ccc(O)cc2)NC(=O)[C@@H]2C[C@@H](O)CN2C(=O)[C@H]([C@@H](C)O)NC1=O` ) reads 0.25 (1)

* * *

Test system: Exophiala dermatitidis CA01
Experiment: Broth microdilution chequerboard analysis of Lynovex (NM001) in combination with clinical antifungals
Format: cell-based
Details: GEOMEAN; in combination with Lynovex (NM001); 96 h, 35° C.
observation-type: Antifungal MIC50 in Combination (µg/mL)
Give bare numbers, in µg/mL.

compound: OC(Cn1cncn1)(Cn1cncn1)c1ccc(F)cc1F
Antifungal MIC50 in Combination [µg/mL]: 35
--
compound: CC[C@H](C)C[C@H](C)CCCCCCCCC(=O)N[C@H]1C[C@@H](O)[C@@H](NCCN)NC(=O)[C@@H]2[C@@H](O)CCN2C(=O)[C@H]([C@H](O)CCN)NC(=O)[C@H]([C@H](O)[C@@H](O)c2ccc(O)cc2)NC(=O)[C@@H]2C[C@@H](O)CN2C(=O)[C@H]([C@@H](C)O)NC1=O
Antifungal MIC50 in Combination [µg/mL]: 11.84
--
compound: CCC(C)n1ncn(-c2ccc(N3CCN(c4ccc(OCC5COC(Cn6cncn6)(c6ccc(Cl)cc6Cl)O5)cc4)CC3)cc2)c1=O (stereo not shown)
Antifungal MIC50 in Combination [µg/mL]: 0.37

Let's switch to this compound now.
Test item `C[C@@H]1[C@H](O)[C@@H](C)/C=C/C=C/C=C/C=C/C=C/C=C/C=C/[C@H](O[C@@H]2O[C@H](C)[C@@H](O)[C@H](N)[C@@H]2O)C[C@@H]2O[C@](O)(C[C@@H](O)C[C@@H](O)[C@H](O)CC[C@@H](O)C[C@@H](O)CC(=O)O[C@H]1C)C[C@H](O)[C@H]2C(=O)O` ; Exophiala dermatitidis CA01; reported Antifungal MIC50 in Combination was 0.17

* * *

Test system: Exophiala dermatitidis CA01
Test: Broth microdilution chequerboard analysis of Lynovex (NM001) in combination with clinical antifungals
Assay type: cell-based
Conditions: GEOMEAN; in combination with Lynovex (NM001); 144 h, 35° C.
Answer each item with its documented Antifungal MIC50 in Combination.
Give bare numbers, in µg/mL.

// known answers, use as guide
compound: C[C@@H]1[C@H](O)[C@@H](C)/C=C/C=C/C=C/C=C/C=C/C=C/C=C/[C@H](O[C@@H]2O[C@H](C)[C@@H](O)[C@H](N)[C@@H]2O)C[C@@H]2O[C@](O)(C[C@@H](O)C[C@@H](O)[C@H](O)CC[C@@H](O)C[C@@H](O)CC(=O)O[C@H]1C)C[C@H](O)[C@H]2C(=O)O [Amphotericin B]
system-under-test: Exophiala dermatitidis CA01
Antifungal MIC50 in Combination / µg/mL: 0.23

compound: CC[C@H](C)C[C@H](C)CCCCCCCCC(=O)N[C@H]1C[C@@H](O)[C@@H](NCCN)NC(=O)[C@@H]2[C@@H](O)CCN2C(=O)[C@H]([C@H](O)CCN)NC(=O)[C@H]([C@H](O)[C@@H](O)c2ccc(O)cc2)NC(=O)[C@@H]2C[C@@H](O)CN2C(=O)[C@H]([C@@H](C)O)NC1=O [Caspofungin]
system-under-test: Exophiala dermatitidis CA01
Antifungal MIC50 in Combination / µg/mL: 3.91

compound: CCC(C)n1ncn(-c2ccc(N3CCN(c4ccc(OCC5COC(Cn6cncn6)(c6ccc(Cl)cc6Cl)O5)cc4)CC3)cc2)c1=O (stereo not shown) [Itraconazole]
system-under-test: Exophiala dermatitidis CA01
Antifungal MIC50 in Combination / µg/mL: 0.20

Next up:
For record OC(Cn1cncn1)(Cn1cncn1)c1ccc(F)cc1F [Fluconazole] the listed Antifungal MIC50 in Combination is 63

* * *

Tested on: Exophiala dermatitidis CA01
Experiment: Broth microdilution chequerboard analysis of Lynovex (NM001) in combination with clinical antifungals
Format: cell-based
Conditions: GEOMEAN; antifungal with Lynovex (NM001); MIC50, 144 h; <0.5 Synergy, 0.5-1 Additive, >1 Indifference
So I've got a bunch of compounds here, and I need their FICI values.

Go through the list and state FICI for each entry.
1. C[C@@H]1[C@H](O)[C@@H](C)/C=C/C=C/C=C/C=C/C=C/C=C/C=C/[C@H](O[C@@H]2O[C@H](C)[C@@H](O)[C@H](N)[C@@H]2O)C[C@@H]2O[C@](O)(C[C@@H](O)C[C@@H](O)[C@H](O)CC[C@@H](O)C[C@@H](O)CC(=O)O[C@H]1C)C[C@H](O)[C@H]2C(=O)O [Amphotericin B]
2. CC[C@H](C)C[C@H](C)CCCCCCCCC(=O)N[C@H]1C[C@@H](O)[C@@H](NCCN)NC(=O)[C@@H]2[C@@H](O)CCN2C(=O)[C@H]([C@H](O)CCN)NC(=O)[C@H]([C@H](O)[C@@H](O)c2ccc(O)cc2)NC(=O)[C@@H]2C[C@@H](O)CN2C(=O)[C@H]([C@@H](C)O)NC1=O [Caspofungin]
3. OC(Cn1cncn1)(Cn1cncn1)c1ccc(F)cc1F [Fluconazole]
4. CCC(C)n1ncn(-c2ccc(N3CCN(c4ccc(OCC5COC(Cn6cncn6)(c6ccc(Cl)cc6Cl)O5)cc4)CC3)cc2)c1=O (stereo not shown) [Itraconazole]

1: 0.75 (2); 2: 0.41 (3); 3: 0.53 (4); 4: 0.18 (3)
